Where do these numbers come from? They come from ChEMBL document CHEMBL1153746.

test: Cytotoxicity against human RXF631 cells after 7 to 20 days by clonogenic assay; type: functional, cell-based; settings: RXF 631
MEASURED_PARAMETER: pIC50
# log scale: pIC50 equals minus log10 of the concentration in mol/L

Return the recorded pIC50 value; entry: "CNC1=CC(=O)c2cc(C)ncc2C1=O"
5.11

###

test: Cytotoxicity against human 526L cells after 4 days by propidium iodide assay; format: functional, cell-based; settings: 96 h
Quick reference for pIC50 among some compounds
# log scale: pIC50 equals minus log10 of the concentration in mol/L

Worked set:
SMILES_STRING: CNC1=CC(=O)c2cc(C)ncc2C1=O
pIC50: 4.97
//
SMILES_STRING: CNC1=CC(=O)c2cc(C(=O)OC)ncc2C1=O
pIC50: 6.96

Return the recorded pIC50 value; entry: "CNC1=CC(=O)c2c(cnc(C)c2C)C1=O"
4.72

###

system: OVCAR-3; assay: Cytotoxicity against human OVCAR-3 cells after 4 days by propidium iodide assay; assay type: functional, cell-based; settings: OVCAR-3, 96 h
MEASURED_PARAMETER: pIC50
# log scale: pIC50 equals minus log10 of the concentration in mol/L

SMILES_STRING: CNC1=C(Cl)C(=O)c2cc(C)ncc2C1=O
pIC50: 5.70

Now examine the next entry.
Return the recorded pIC50 value; entry: "CNC1=CC(=O)c2cc(C(=O)OC)ncc2C1=O"
7.92

###

assay: Cytotoxicity against human RXF 944L cells after 4 days by propidium iodide assay; format: functional, cell-based; settings: 96 h
Quick reference for IC50 among some compounds
Value expressed in µM; do not type the unit.

Worked set:
COMPOUND: CNC1=CC(=O)c2cc(C(=O)OC)ncc2C1=O
MEASURED_PARAMETER: IC50
QUANTITATIVE_READOUT: 0.02
--
COMPOUND: CNC1=CC(=O)c2cc(C)ncc2C1=O
MEASURED_PARAMETER: IC50
QUANTITATIVE_READOUT: 5.43

Now examine the next entry.
Return the recorded IC50 value; entry: CNC1=CC(=O)c2c(cnc(C)c2C)C1=O [MANSOURAMYCIN A]
18.1

###

Quick reference for IC50 among some compounds
tested on: OVCAR-3; test: Cytotoxicity against human OVCAR-3 cells after 4 days by propidium iodide assay; type: functional, cell-based; conditions: OVCAR-3, 96 h, in the assay text read “MTT assay” for “propidium iodide assay”
Value expressed in µM; do not type the unit.

SMILES_STRING: CNC1=CC(=O)c2c(cnc(C)c2C)C1=O
MEASURED_PARAMETER: IC50
QUANTITATIVE_READOUT: 32.3

Now examine the next entry.
Return the recorded IC50 value; entry: "CNC1=CC(=O)c2cc(C)ncc2C1=O"
7.64
